experiment: Inhibitory activity expressed as the concentration required to inhibit platelet-activating factor (PAF) induced maximum aggregation by 50%
pIC50: −log10 of the molar value.
Quantity kind: pIC50

- Compound: "CCCCCCCCCCCCCCC1COC(COCCCCCC[n+]2ccsc2)C1 (centres undefined)"
  pIC50: 5.68
- Compound: "CCCCCCCCCCCCCCCCOCC1COC(COC(=O)NCCc2cccc[n+]2CC)C1 (centres undefined)"
  pIC50: 5.55

====

assay: Inhibitory activity expressed as the concentration required to inhibit platelet-activating factor (PAF) induced maximum aggregation by 50%
pIC50: −log10 of the molar value.
Quantity kind: pIC50

- Compound: "CCCCCCCCCCCCCCC1COC(COCCCC[n+]2ccsc2)C1 (stereo unspecified)"
  pIC50: 4.41
- Compound: "CCCCCCCCCCCCCCCCCC1OCC(COCCCCCC[n+]2ccccc2)O1 (stereo unspecified)"
  pIC50: 5.52

(a) CCCCCCCCCCCCCCCCCC1OCC(COCCCCCC[n+]2cscc2C)O1 (stereo unspecified)
(b) CCCCCCCCCCCCCCCCC1COC(COCCCCCCC[n+]2ccsc2)C1 (stereo unspecified)
Which is greater in pIC50, the first item a or the second item b ? Please reply using the label of the selected record.
b
(b: 5.77, a: 5.51)
